// provenance: paper PMC5540273

System: CHEK1
Conditions: concentration: 1 μM, replicates: in singlicate; n = 1;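 note: KINOMEscan kinase panel screen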
metric: %Inh (%)

[[record]]
molecule = "Cc1occc1-c1ncc(OC[C@@H](N)Cc2c[nH]c3ccccc23)cc1-c1ccc2[nH]nc(C)c2c1.O=C(O)C(F)(F)F"
obs_value = 0

[[record]]
molecule = "Cl.Cl.NCC(NCc1ccc(-c2ccnc3[nH]ccc23)s1)c1ccccc1 (stereo not shown)"
obs_value = 0

[[record]]
molecule = "Cc1ccc(S(=O)(=O)Nc2ccc(Nc3nccc(Nc4cccc5[nH]ncc45)n3)cc2)cc1"
obs_value = 0

[[record]]
molecule = "CN1CCN(Cc2cccc(-c3ccc4c(Nc5ccc(Oc6ccccc6)cc5)ccnc4c3)c2)CC1"
obs_value = 0

[[record]]
molecule = "c1ccc(-c2cnc3nccnn23)cc1"
obs_value = 0

[[record]]
molecule = "CCS(=O)(=O)c1ccc(OC)c(Nc2nccc(-c3c(-c4cccc(NC(=O)c5c(F)cccc5F)c4)nn4ncccc34)n2)c1"
obs_value = 10

[[record]]
molecule = "CNC(=O)c1ccccc1Nc1nc(Nc2ccc(N3CCOCC3)cc2)ncc1Cl.Cl"
obs_value = 65

[[record]]
molecule = "Cn1cc(-c2ccc3c(c2)CCN3C(=O)Cc2cccc(F)c2)c2c(N)ncnc21"
obs_value = 5

[[record]]
molecule = "Cc1cccc(NC(=O)Nc2ccc(Oc3ncnc4ccn(C)c34)cc2)c1"
obs_value = 0

[[record]]
molecule = "CN1CCN(CCCNc2nccc(-c3c(-c4ccc(F)cc4)nn4cc(C(F)(F)F)ccc34)n2)CC1"
obs_value = 10

[[record]]
molecule = "COc1cccc(C2=C(Nc3ccc(Cl)c(C(=O)O)c3)C(=O)NC2=O)c1"
obs_value = 0

[[record]]
molecule = "C[C@@H](Oc1cc(-n2cnc3cc(-c4ccnc(NCCS(C)(=O)=O)c4)ccc32)sc1C(N)=O)c1ccccc1Cl"
obs_value = 0

[[record]]
molecule = "CC(C)(C)c1ccc2nccc(Nc3cccc(O)c3)c2c1"
obs_value = 74

[[record]]
molecule = "COc1cc(Nc2nccc(-c3c(-c4cccc(NC(=O)c5c(F)cccc5F)c4)nn4ncccc34)n2)cc(OC)c1OC"
obs_value = 0

[[record]]
molecule = "CCn1c(-c2nonc2N)nc2c(C#CC(C)(C)O)ncc(OCCCCN)c21.O=C(O)C(F)(F)F.O=C(O)C(F)(F)F"
obs_value = 2

[[record]]
molecule = "CCc1ccc(-c2ccc3c(c2)-c2c(cnn2C)S(=O)(=O)N3C)cc1"
obs_value = 0


* * *

Tested on: MTOR
Conditions: concentration: 1 μM, replicates: in singlicate; n = 1
metric: %Inh (%)

[[record]]
compound = "COC(=O)Nc1nc2cc(Oc3ccc(NC(=O)Nc4cc(C(F)(F)F)ccc4F)cn3)ccc2[nH]1.Cl.Cl [GW681170]"
obs_value = 2

[[record]]
compound = "CCS(=O)(=O)c1ccc(OC)c(Nc2nccc(-c3c(-c4cccc(NC(=O)c5c(F)cccc5F)c4)nn4ncccc34)n2)c1 [GSK326180]"
obs_value = 15

[[record]]
compound = "Cc1ccc(C(=O)Nc2ccc(Nc3ccnc4cc(-c5nccs5)ccc34)cc2O)cc1.Cl [GW494702]"
obs_value = 6

[[record]]
compound = "CN(C)S(=O)(=O)c1cc(-c2ccc3nccc(-c4cccc(S(N)(=O)=O)c4)c3c2)cnc1N [GSK1669921]"
obs_value = 100

[[record]]
compound = "CC(=O)N1CCN(c2ccc(Nc3nccc(-c4sc(C(C)C)nc4-c4cccc(NS(=O)(=O)c5cccc(Cl)c5)c4)n3)cn2)CC1 [GSK1660437]"
obs_value = 3

[[record]]
compound = "Cn1cc(-c2[nH]c3cc(NC(=O)[C@H](N)C4CCCCC4)cc4c3c2C=NNC4=O)cn1"
obs_value = 17

[[record]]
compound = "Cc1ccc(F)c(C(=O)Nc2cccc(-c3nn4ccccc4c3-c3ccnc(Nc4cccc(F)c4)n3)c2)c1F [GSK361061]"
obs_value = 13

[[record]]
compound = "Cl.c1ccc(-c2ccc3c(Nc4ccc5[nH]ccc5c4)ccnc3c2)nc1 [GW440138]"
obs_value = 4

[[record]]
compound = "Nc1ncc(-c2ccc3nccc(-c4ccncc4)c3c2)cc1S(=O)(=O)N1CCOCC1 [GSK1627798]"
obs_value = 99.3

[[record]]
compound = "Cl.Cl.NCC(NC(=O)c1cc(-c2ccccc2)c(-c2ccnc3[nH]ccc23)s1)c1ccccc1 (stereo not shown) [GSK1321561]"
obs_value = 0

[[record]]
compound = "c1ccc(-c2cnc3nccnn23)cc1 [AH20685]"
obs_value = 2

[[record]]
compound = "COc1ccc(-c2coc3ccc(-c4nnc(SCc5ccc(OC)c(C(F)(F)F)c5)o4)cc23)cc1"
obs_value = 0

[[record]]
compound = "O=C(Nc1n[nH]c2nc(-c3ccc(O)cc3)ccc12)C1CC1 [SB-710363]"
obs_value = 0


* * *

System: TAOK3
Conditions: concentration: 1 μM, replicates: in singlicate; n = 1
metric: %Inh

[[record]]
compound = "CCc1ccc(-c2ccc3c(c2)-c2c(cnn2C)S(=O)(=O)N3C)cc1"
obs_value = "0%"

[[record]]
compound = "Cc1ccc(S(=O)(=O)Nc2ccc(Nc3nccc(Nc4cccc5[nH]ncc45)n3)cc2)cc1"
obs_value = "0%"

[[record]]
compound = "O=C(Nc1cccc(-c2nn3ccccc3c2-c2ccnc(Nc3cccc(C(F)(F)F)c3)n2)c1)c1c(F)cccc1F"
obs_value = "30%"

[[record]]
compound = "Nc1ncc(-c2cccnc2)c2scc(-c3ccc4c(c3)CCN4C(=O)Cc3ccccc3)c12"
obs_value = "0%"

[[record]]
compound = "CC(=O)N1CCN(c2ccc(Nc3nccc(-c4sc(C(C)C)nc4-c4cccc(NS(=O)(=O)c5cccc(Cl)c5)c4)n3)cn2)CC1"
obs_value = "3%"

[[record]]
compound = "COc1cccc(C2=C(Nc3ccc(Cl)c(C(=O)O)c3)C(=O)NC2=O)c1"
obs_value = "100%"

[[record]]
compound = "Cl.Cl.NCC(NCc1ccc(-c2ccnc3[nH]ccc23)s1)c1ccccc1 (stereo not shown)"
obs_value = "0%"

[[record]]
compound = "Cl.Cl.NCC(NC(=O)c1cc(-c2ccccc2)c(-c2ccnc3[nH]ccc23)s1)c1ccccc1 (stereo not shown)"
obs_value = "0%"

[[record]]
compound = "CNC(=O)c1ccccc1Nc1nc(Nc2ccc(N3CCOCC3)cc2)ncc1Cl.Cl"
obs_value = "94.2%"

[[record]]
compound = "COc1cc(Nc2nccc(N3CCC(NC(=O)c4cc5ccccc5s4)C3)n2)cc(OC)c1OC (stereo not shown)"
obs_value = "0%"

[[record]]
compound = "COc1cc(Nc2nccc(N3CCC(NC(=O)Nc4cccc(C(C)=O)c4)C3)n2)cc(OC)c1OC (stereo not shown)"
obs_value = "0%"

[[record]]
compound = "CSc1cccc2c(-c3ccncn3)c(-c3ccc(F)cc3)nn12"
obs_value = "0%"

[[record]]
compound = "C[C@@H]1CC[C@@H](C(=O)Nc2ccccc2)CN1c1cc(-c2ccc3c(N)n[nH]c3c2)nc(N)n1"
obs_value = "10%"

[[record]]
compound = "COc1cccc(C(=O)Nc2cccc(Oc3ccc4nc(NC(=O)C5CC5)cn4n3)c2)c1"
obs_value = "0%"

[[record]]
compound = "COC(=O)Nc1nc2cc(Oc3ccc(NC(=O)Nc4cc(C(F)(F)F)ccc4F)cn3)ccc2[nH]1.Cl.Cl"
obs_value = "0%"

[[record]]
compound = "Fc1ccc(-c2ncn(C3CCNCC3)c2-c2ccnc(Oc3ccc(-c4ccccc4)cc3)n2)cc1"
obs_value = "20%"


* * *

# reported %Inh; entries follow
Tested on: PKAC-alpha
Construct: gene PRKACA
Details: concentration: 1 μM, replicates: in singlicate; n = 1
metric: %Inh (%)

[[record]]
structure_as_smiles = "Fc1ccc(-c2ncn(C3CCNCC3)c2-c2ccnc(Oc3ccc(-c4ccccc4)cc3)n2)cc1"
obs_value = 35

[[record]]
structure_as_smiles = "O=C(Nc1cccc(-c2nn3ncccc3c2-c2ccnc(Nc3ccccc3)n2)c1)c1c(F)cccc1F"
obs_value = 5

[[record]]
structure_as_smiles = "Oc1cc(Nc2ccnc3cc(I)ccc23)ccc1F"
obs_value = 0

[[record]]
structure_as_smiles = "COC(=O)Nc1nc2ccc(Oc3ccc(NC(=O)Nc4cc(C(F)(F)F)ccc4F)cc3)cc2n1C.Cl"
obs_value = 0


* * *

%Inh: recorded values
Test system: RIPK4
Details: concentration: 1 μM, replicates: in singlicate; n = 1
metric: %Inh (%)

[[record]]
compound = "NCCCC(NC(=O)c1cc(Br)c(-c2ccnc3[nH]ccc23)s1)c1ccccc1.O=C(O)C(F)(F)F.O=C(O)C(F)(F)F (centres unmarked)"
obs_value = 6

[[record]]
compound = "CC(C)c1nc(-c2cccc(NS(=O)(=O)c3c(F)cccc3F)c2F)c(-c2ccnc(Nc3ccc(N4CCOCC4)nc3)n2)s1"
obs_value = 15

[[record]]
compound = "Cn1cc(-c2ccc3c(c2)CCN3C(=O)Cc2cccc(F)c2)c2c(N)ncnc21"
obs_value = 5

[[record]]
compound = "Cl.c1ccc(-c2ccc3c(Nc4ccc5[nH]ncc5c4)ccnc3c2)nc1"
obs_value = 23

[[record]]
compound = "Nc1ncc(-c2ccc3nccc(-c4ccncc4)c3c2)cc1S(=O)(=O)N1CCOCC1"
obs_value = 4

[[record]]
compound = "O=C(Nc1cccc(Oc2ccc3nc(NC(=O)C4CC4)cn3n2)c1)c1ccccc1C(F)(F)F"
obs_value = 0

[[record]]
compound = "O=c1[nH]cc(-c2ccc(N3CCOCC3)cc2)c2sc(-c3cn[nH]c3)cc12"
obs_value = 12

[[record]]
compound = "COc1ccc(CNC(=O)NC2CCN(c3ccnc(Nc4ccc(F)cc4)n3)CC2)cc1"
obs_value = 12

